target: Cytochrome P450 2D6 (Homo sapiens) (UniProt P10635); experiment: Cytochrome P450 Family 2 Subfamily D Member 6 (CYP2D6) small molecule antagonists: luciferase reporter qHTS assay (AID 1671196); settings: P450-Glo CYP2D6 enzyme assay, luciferin luminescence, 1 h; series mostly up to 115 µM; further: nearly all actives have a fitted effect of over 50% in size
Sequence (P10635 whole entry, looked up): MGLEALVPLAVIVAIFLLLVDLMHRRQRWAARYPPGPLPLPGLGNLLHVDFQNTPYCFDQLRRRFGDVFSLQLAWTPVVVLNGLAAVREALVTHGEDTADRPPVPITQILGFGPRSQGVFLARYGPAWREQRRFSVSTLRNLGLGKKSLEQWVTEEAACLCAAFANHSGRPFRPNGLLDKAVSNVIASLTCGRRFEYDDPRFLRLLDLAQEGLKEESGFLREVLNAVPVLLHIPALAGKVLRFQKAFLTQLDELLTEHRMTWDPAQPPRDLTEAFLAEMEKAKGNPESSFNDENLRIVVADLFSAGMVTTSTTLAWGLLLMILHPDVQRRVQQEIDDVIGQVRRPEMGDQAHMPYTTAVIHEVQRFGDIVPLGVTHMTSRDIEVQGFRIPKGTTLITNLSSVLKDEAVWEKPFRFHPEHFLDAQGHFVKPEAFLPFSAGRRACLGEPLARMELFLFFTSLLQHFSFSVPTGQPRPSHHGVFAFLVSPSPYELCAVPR
Records with an inconclusive call do not appear. Calls of active or inactive are those of the source. The call rests on the fitted dose curve; in most records, active means well fitted inhibition curve with a large enough effect in the repeat runs; inconclusive means weak or mixed curves; inactive means no such curve, though single readings can be large or run the other way.
Please state which outcome applies, choosing from t (active), f (inactive)

Please state the recorded outcome for this compound: "CC[N+](CC)(CCNC(=O)C(=O)NCC[N+](CC)(CC)Cc1ccccc1Cl)Cc1ccccc1Cl"
t

Which outcome was assigned to "c1ccc2sc(SN(C3CCCCC3)C3CCCCC3)nc2c1" in this test?
t

Check the results log: what was the call for "CCCCCCCC/C=C\CCCCCCCCO" ?
f

Status in this test for CCCCN(CCCC)C(C(N)=O)c1ccc(OC)cc1 (centres undefined) ?
t

Can you look up the reported call for "CCC(=O)OC" for me?
f

What was the test verdict on "O=C1c2ccccc2C(=O)N1CCc1noc(-c2ccc(CN3CCCCCC3)s2)n1" ?
t

# lookup: test call for "CC(=O)Nc1ccc(C)cc1C"
f

Test call for this compound, please: CC(C)COCC(CN(Cc1ccccc1)c1ccccc1)N1CCCC1 (centres undefined)
t

Could you kindly confirm the outcome this assay logged for "Cc1ccc(CO)cc1" ?
f

Please share the test call associated with "O=C(O)c1cccc(-c2noc(-c3ccccc3F)n2)c1" .
t

Write down the call the test reported for this compound. Item: "Cc1cc(C)c(N)cc1C"
t

Please share the test call associated with "N#CCc1ccc(Cl)cc1Cl" .
f

// outcome(item) with item = "O=C(CCCN1CC=C(n2c(=O)[nH]c3ccccc32)CC1)c1ccc(F)cc1"
t

Answer briefly: the call reported for "O=C(/C=C/c1ccccc1)OCCc1ccccc1" in this assay.
f

Entry CCC(OCCCOC)OC(C)=O (centres undefined) : call = ?
f

For "COC(=O)CCS" , what call appears in the results of this test?
f

Please let me know the test result on file for "CN1C(=O)OC(C)(C)C1=O" .
f

Tell me the recorded outcome of this test for "CN1CC(=O)N2[C@H](c3ccc4c(c3)OCO4)c3[nH]c4ccccc4c3C[C@@H]2C1=O" .
f

What did the test return for "Cc1c(C)c2c(c(C)c1OC(=O)CCC(=O)OCCO)CC[C@@](C)(CCC[C@H](C)CCC[C@H](C)CCCC(C)C)O2" ?
f

What did this assay record as the result for "CCN(CC)CCNC(=O)COc1ccc(OC)cc1" ?
t

# fetch the recorded call for "Brc1cc2ccccc2c2ccccc12" here
f

Outcome logged for "COC(=O)C1=C(C)NC(C)=C(C(=O)O[C@@H]2CCCN(Cc3ccccc3)C2)[C@@H]1c1cccc([N+](=O)[O-])c1" in this assay:
t

Hello, I am checking results. What call was entered for "O=C=Nc1ccc(Cl)c(Cl)c1" ?
f

For "CC(=O)[C@H]1[C@H](C#N)C[C@H]2[C@@H]3CC=C4C[C@@H](O)CC[C@]4(C)[C@H]3CC[C@@]21C" , which call appears in the assay record?
f

* * *

assay: qHTS assay to identify small molecule agonists of the farnesoid-X-receptor (FXR) signaling pathway - cell viability counter screen (AID 743218); details: FXR-bla HEK293T viability, CellTiter-Glo luminescence, 16 h; series mostly up to 62.6 µM; further: nearly all actives have a fitted effect of over 45% in size
Records with an inconclusive call do not appear. Active and inactive are the calls of the source. The call rests on the fitted dose curve; in most records, active means well fitted cell-killing curve with a large enough effect in the repeat runs; inconclusive means weak or mixed curves, or effect the other way; inactive means no such curve, though single readings can be large or run the other way.
Allowed answers: TRUE for active, FALSE for inactive

How did this test come out for OC(CCN1CCCC1)(c1ccccc1)C1CCCCC1 (stereo not given) ?
FALSE

Check the results log: what was the call for NC1[C@H]2CN(c3nc4c(cc3F)c(=O)c(C(=O)O)cn4-c3ccc(F)cc3F)C[C@@H]12 (stereo not given in full) ?
FALSE

Hi, do you know how "c1ccc2c(c1)CCc1ccccc1N2" came out in this test?
FALSE

Dear colleague, could you share the recorded outcome for "Cc1cccc(N(C)C(=S)Oc2ccc3c(c2)CCC3)c1" when you have a moment?
FALSE

Field: outcome | Entry: "COC(=O)[C@H]1[C@H]2C[C@@H]3c4[nH]c5cc(OC)ccc5c4CCN3C[C@H]2C[C@@H](OC(=O)/C=C/c2ccc(O)c(OC)c2)[C@@H]1OC"
TRUE

Identify the outcome logged in this assay for the compound shown: CCCCN1CCCC1C(=O)Nc1c(C)cc(C)cc1C (stereo not given)
FALSE

// outcome(item) with item = "CCOC(=O)c1ccc(O)c(O)c1"
FALSE

What outcome does the record of this test show for "Cc1ccco1" ?
FALSE

Short answer needed: outcome of this test for c1cc(N(CC2CO2)CC2CO2)ccc1Cc1ccc(N(CC2CO2)CC2CO2)cc1 (stereo not given) ?
FALSE

Which outcome was entered for the compound "Nc1ncnc2c1ncn2[C@H]1CC[C@@H](CO)O1" in this test?
FALSE

* * *

For each record, write down the corresponding activity change, positive = activation.
experiment: qHTS assay to identify small molecule agonists of the estrogen related receptor (ERR) signaling pathway from Tox21 library (AID 1224849); details: ERR reporter cell line, ONE-Glo luciferase, 18 h; at 92.4 µM (top of the series) unless noted; further: on the % scale 0 is the no-effect control and ±100 the full control effect; nearly all actives have a fitted effect of over 15% in size
Calls of active or inactive are those of the source. Calls follow the shape of the full dose curve.

Param item = "COc1cc(C(=O)NC2CCN(C)CC2)ccc1Nc1ncc2c(n1)N(C1CCCC1)CC(F)(F)C(=O)N2C" ; retrieve measured activity change, positive = activation.
-53.6% (inactive)

Name the recorded activity change, positive = activation for "CC(=O)c1ccc([N+](=O)[O-])cc1" .
1.22% (inactive)

Quick one: activity change, positive = activation of "Brc1cc2ccccc2c2ccccc12" ?
-24% (inactive)

Look up activity change, positive = activation for this compound: "CC(CO)CO"
0.194% (inactive)

So what does the record say about activity change, positive = activation for O=C(OCC(O)CO)c1ccccc1Nc1ccnc2cc(Cl)ccc12 (stereo unspecified) ?
-40.1% [at 42.5 µM] (inactive)

Requested field: activity change, positive = activation. Item: "C[C@H]1C[C@H](O)c2ccsc2S1(=O)=O"
5.62% [at 42.5 µM] (inactive)

* * *

test: Caspase-3/7 induction in HepG2 cells by small molecules, qHTS assay (AID 1346978); conditions: HepG2 caspase-3/7 activation, Caspase-Glo luminescence, 17 h; series mostly up to 92.4 µM; further: nearly all actives have a fitted effect of over 15% in size; further: potency means the concentration at half of the fitted maximal effect
Inconclusive results are not listed. Activity calls are given as the source filed them. Calls follow the shape of the dose curve; as a rule, active = well fitted activation curve with a large enough effect in the repeat runs; inconclusive = weak or mixed curves; inactive = flat fitted curve, though single readings scatter.
Readout kind: Potency

Guide cases for Potency, answers given:
• COc1cc(C(=O)NC2CCN(C)CC2)ccc1Nc1ncc2c(n1)N(C1CCCC1)CC(F)(F)C(=O)N2C = 22.3 µM (active)
• O=c1[nH]ncc2ccccc12 = inactive
• CCOC(=O)c1ccc(C#Cc2ccc3c(c2)C(C)(C)CCS3)nc1 = inactive
• Nc1ccc(N=Nc2ccccc2)c(N)c1 = inactive
• C=CC(=O)OCC1CC2CC1C1CCC(COC(=O)C=C)C21 (stereo unspecified) = inactive

Potency lookup needed for "CN1C(=O)OC(C)(C)C1=O" , thanks.
inactive

* * *

Test: qHTS RealTime-Glo MT Cell Viability Assay in HEK293 cells - 40 hour (AID 1224874); further: on the % scale 0 is the no-effect control and ±100 the full control effect; nearly all actives have a fitted effect of over 50% in size
Conditions: RealTime-Glo luminescence; hits give low values
Source text: U.S. Tox21 Program National Center for Advancing Translational Sciences [NCATS] NIH Chemical Genomics Center [NCGC] U.S. Environmental Protection Agency [EPA] National Institutes of Environmental Health Sciences [NIEHS] National Toxicology Program [NTP] U.S. Food and Drug Administration [FDA] Tox21 Assay Overview: Measure of cell viability is critical in the cell-base assay. Analysis of cell viability is necessary for the characterization of cell responses to cytotoxic drugs and environmental stress. […]
Inconclusive results are not listed.
Kindly supply the reported max response values for the records listed here.
Write the value in % as a bare number.

May I ask what max response has been recorded for "NNC(=O)CP(=O)(c1ccccc1)c1ccccc1" ?
-3.49

For the molecule shown here, CC(O)c1ccccc1 (stereo not drawn) , give the reported max response.
19.3

# lookup: max response of "CCCCCCCCOc1ccc(C(=O)O)cc1"
-8.38

Please look up its max response: "CCOc1ccccc1O[C@H](c1ccccc1)[C@H]1CNCCO1"
1.67

May I ask what max response has been recorded for "C[C@]1(Cn2ccnn2)[C@H](C(=O)O)N2C(=O)C[C@H]2S1(=O)=O" ?
2.48

Field request: max response | item: "C1COC1"
6.53

Item under review: "c1ccc(C[n+]2cccc3ccccc32)cc1" . Reported max response?
-28.8

So what does the record say about max response for "CC(=O)c1ccc([N+](=O)[O-])cc1" ?
11.2

Can you look up the measured max response of "O=c1[nH]c2ccc(Cl)cc2o1" for me?
-0.887

Name the reported max response value associated with the molecule "COc1ccccc1Oc1c(NS(=O)(=O)c2ccc(C(C)(C)C)cc2)nc(-c2ncccn2)nc1OCCO"
-19.3

Would you mind telling me what max response value was observed for "NC(=O)c1ccncc1" ?
6.51

Reported max response, molecule "CCCCCCCCCI" : ____
-1.11

For the molecule shown here, C=CC(C)(CCC=C(C)C)OC(=O)CC(C)C (stereo not drawn) , give the reported max response.
7.92

Quick one: max response of C=CCc1ccccc1OCC(O)CNC(C)C (stereo not drawn) ?
-5.29

Item under review: CCC1NC(=O)c2cc(S(N)(=O)=O)c(Cl)cc2N1 (stereo not drawn) . Reported max response?
6.45

What value of measured max response is listed for CCC1CO1 (stereo not drawn) ?
4.39

Would you kindly share the measured max response for "Oc1cccc(O)c1O" ?
1.23

Entry under review: "CC(=O)Nc1cc(S(=O)(=O)O)cc2cc(S(=O)(=O)O)c(N=Nc3ccccc3)c(O)c12" . Reported max response?
-17.9

Using the record for "CC(CO)CO" , report its max response.
3.5

Request the reported max response associated with "O=C1c2ccccc2C(=O)C1c1nc2ccccc2c(Br)c1O"
21.2

Recorded max response for "CC[N+](CC)(CCNC(=O)C(=O)NCC[N+](CC)(CC)Cc1ccccc1Cl)Cc1ccccc1Cl" , please?
0.73

Request the reported max response associated with "C=CC(=O)[O-].C=CC(=O)[O-].[Zn+2]"
0.547

Which value of max response has been reported for "CCCCCCCCN" in the records?
-0.288

Name the recorded max response for "O=C(O)CCC(=O)C(=O)O" .
0.138

Fill in: max response of "O=C(O)C[C@H](NC(=O)OCc1ccccc1)C(=O)O" is ___
-0.276

What does the data say about its max response? Entry: "O=C(/C=C/c1ccccc1)OCCc1ccccc1"
-0.613

Given the entry "CCOC(=O)c1ccc(OCCN2C[C@H](O)[C@@H](O)[C@H](O)[C@H]2CO)cc1" , report its measured max response.
1.01

Tell me the measured max response of "C1C[C@@H]2[C@H]3CC[C@H](C3)[C@@H]2C1" , please.
-10.1
